TARGET_OR_SYSTEM: Alpha2D adrenergic receptor (Rattus norvegicus)
Construct: The cortex is dissected out and homogenized in 20 volumes of HEPES sucrose; from tissue; host or cells: rat brain cortex, synaptic membrane fraction (male Wistar rats, Charles River)
ASSAY_COMMENT: Alpha2D adrenergic receptor binding assay (3H-para-aminoclonidine, rat cortex synaptic membranes)
Design: species or system rat (male Wistar)
COND: displacement of 3H-para-aminoclonidine, rat cortex membranes, 25° C., 20 min; read-out: Ki
EXPERIMENTAL_ENDPOINT: Ki

>>> df
                                   molecule                          target_or_system   result
0  CC(C)=C(c1c[nH]cn1)c1sccc1C [drawing 25, reference compound]  Alpha2D adrenergic receptor (Rattus norvegicus)  1000 nM
1  CC(C)=C(c1c[nH]cn1)c1sccc1C [drawing 24, reference compound]  Alpha2D adrenergic receptor (Rattus norvegicus)   335 nM

----------
Test system: acetylcholine bromide-induced abdominal constriction response
ASSAY_COMMENT: Mouse Acetylcholine Bromide-Induced Abdominal Constriction Assay
Format: in vivo
COND: Mus musculus, 0.5 h; oral, 30 minutes before acetylcholine bromide 5.5 mg/kg i.p.; dose producing 50% analgesia
Text: Mouse Acetylcholine Bromide-Induced Abdominal Constriction Assay The mouse acetylcholine bromide-induced abdominal constriction assay, as described by Collier et al. in Brit. J. Pharmacol. Chem. Ther., 32: 295-310, 1968, with minor modifications was used to assess analgesic potency of the compounds herein. […]
Where a name gives a salt, the structure may show the parent alone.
Readings of ED50 for the listed molecules
EXPERIMENTAL_ENDPOINT: ED50

>>> df
                                   molecule      result
0  CC(c1c[nH]cn1)c1scc(Br)c1Br (centres unmarked) [Cp-8, fumarate]   5.7 mg/kg
1  CC(c1c[nH]cn1)c1sccc1Br.Cl (centres unmarked) [Cp-4]   2.1 mg/kg
2            Brc1ccsc1Cc1c[nH]cn1.Cl [Cp-3]   1.7 mg/kg
3  Cc1ccsc1C(C)c1c[nH]cn1.Cl (centres unmarked) [Cp-2]   1.4 mg/kg
4             Cc1ccsc1Cc1c[nH]cn1.Cl [Cp-1]  0.94 mg/kg

----------
TARGET_OR_SYSTEM: Alpha2D adrenergic receptor (Rattus norvegicus, UniProt P22909)
Construct: The cortex is dissected out and homogenized in 20 volumes of HEPES sucrose; from tissue; host or cells: rat brain cortex, synaptic membrane fraction (male Wistar rats, Charles River)
Sequence (P22909 1-465): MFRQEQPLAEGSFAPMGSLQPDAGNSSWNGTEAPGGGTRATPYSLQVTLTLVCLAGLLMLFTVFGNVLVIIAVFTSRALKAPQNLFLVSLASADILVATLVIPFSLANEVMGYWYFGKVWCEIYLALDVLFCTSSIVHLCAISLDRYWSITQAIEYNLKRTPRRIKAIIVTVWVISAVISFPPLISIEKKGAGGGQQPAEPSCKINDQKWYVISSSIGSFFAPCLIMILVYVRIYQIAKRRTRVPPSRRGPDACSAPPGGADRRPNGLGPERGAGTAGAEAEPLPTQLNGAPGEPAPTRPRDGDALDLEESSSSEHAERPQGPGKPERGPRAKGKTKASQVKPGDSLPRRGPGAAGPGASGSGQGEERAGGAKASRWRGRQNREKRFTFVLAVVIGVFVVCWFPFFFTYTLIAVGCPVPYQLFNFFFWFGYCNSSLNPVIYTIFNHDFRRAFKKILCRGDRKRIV
ASSAY_COMMENT: Alpha2D adrenergic receptor binding assay (3H-para-aminoclonidine, rat cortex synaptic membranes)
Parameters: species or system rat (male Wistar)
Where a name gives a salt, the structure may show the parent alone.
The entries below come with measured Ki values attached.
EXPERIMENTAL_ENDPOINT: Ki (nM)

>>> print(df.to_string())
                                    compound  unit_descriptor  recorded_number
 0  c1csc(Cc2c[nH]cn2)c1 [reference compound]               nM              8.7
 1  Cc1ccc(Cc2c[nH]cn2)s1 [reference compound]               nM              3.6
 2  Brc1csc(Cc2c[nH]cn2)c1Br [Cp-7, fumarate]               nM             0.43
 3  CC(c1c[nH]cn1)c1sccc1Br.Cl (stereo not drawn) [Cp-4, Hydrochloride]               nM             0.96
 4  CC(c1c[nH]cn1)c1scc(Br)c1Br (stereo not drawn) [Cp-8, fumarate]               nM             0.07
 5  Cc1ccsc1C(C)c1c[nH]cn1.Cl (stereo not drawn) [Cp-2, hydrochloride]               nM              2.1
 6  Cc1ccsc1Cc1c[nH]cn1.Cl [Cp-1, Hydrochloride]               nM             0.45
 7  Brc1ccsc1Cc1c[nH]cn1.Cl [Cp-3, Hydrochloride]               nM             0.35
 8  Brc1csc(Cc2c[nH]cn2)c1 [Cp-9, Hydrochloride]               nM              1.4
 9  CCC(c1c[nH]cn1)c1sccc1C (stereo not drawn) [reference compound]               nM              8.3
10  Cc1csc(Cc2c[nH]cn2)c1C [Cp-5, hydrochloride]               nM             0.17
11  Cc1csc(C(C)c2c[nH]cn2)c1C (stereo not drawn) [Cp-6, Fumarate]               nM             0.75
